Reference for the values: paper PMC5540273

%Inh reference
Tested on: TTK
RECORDED_CONDITIONS: concentration: 1 μM, replicates: in singlicate; n = 1;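 note: KINOMEscan kinase panel screen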
Use % as the unit, but write only the number.

{"COMPOUND": "O=C(Nc1n[nH]c2cc(-c3ccsc3)ccc12)C1CC1", "%Inh, %": 35}
{"COMPOUND": "Cc1ccccc1Cn1ccn2c(=O)cc(N3CCOCC3)nc12", "%Inh, %": 5}
{"COMPOUND": "CC[C@@H]1CO[C@H](C(=O)Nc2ccccc2)CN1c1cc(-c2ccc3c(N)n[nH]c3c2)nc(NC)n1", "%Inh, %": 0}
{"COMPOUND": "c1ccc(-c2ccnc3[nH]ccc23)cc1", "%Inh, %": 6}

input: Query (compound): `COc1ccc(Nc2nccc(NCCNC(=O)Nc3cc(C)ccc3C)n2)cc1` ; field requested: %Inh
output: 0

* * *

System: RSK2(Kin.Dom.1-N-terminal)
Construct: gene RPS6KA3
RECORDED_CONDITIONS: concentration: 1 μM, replicates: in singlicate; n = 1
PARAMETER: %Inh (%)
Quick reminder: number only, in %, skip the unit.

Take a look at these entries with their results.
{"COMPOUND": "CC(C)c1ccc(O)cc1Nc1ccnc2ccc(C(F)(F)F)cc12 [GW482059]", "SYSTEM_UNDER_TEST": "RSK2(Kin.Dom.1-N-terminal)", "MEASUREMENT_UNIT": "%", "%Inh": 0}
{"COMPOUND": "CC(=O)c1cccc(NC(=O)NC2CCN(c3ccnc(Nc4ccc(F)cc4)n3)C2)c1 (centres unmarked) [GSK1379710]", "SYSTEM_UNDER_TEST": "RSK2(Kin.Dom.1-N-terminal)", "MEASUREMENT_UNIT": "%", "%Inh": 0}
{"COMPOUND": "CS(=O)(=O)CCNCc1nc(-c2ccc3ncnc(Nc4ccc5c(cnn5Cc5ccccc5)c4)c3c2)cs1.Cl.Cl [GW569716]", "SYSTEM_UNDER_TEST": "RSK2(Kin.Dom.1-N-terminal)", "MEASUREMENT_UNIT": "%", "%Inh": 0}

input: Consider the compound `CC(=O)c1c(C)c2cnc(Nc3ccn(C)n3)nc2n(C2CCCC2)c1=O` and give its measured %Inh.
output: 0

input: Quick check: %Inh of CNc1nc(-c2ccc3c(N)n[nH]c3c2)cc(N2C[C@@H](C(=O)NC3CCCCC3)OC[C@H]2C)n1 [GSK2375584] ?
output: 0

input: Tell me the measured %Inh of COc1cccc(C2=C(Nc3cc(Cl)c(O)c(Cl)c3)C(=O)NC2=O)c1 [SB-390767] , please.
output: 11

* * *

Below: a set of entries, each annotated with reported %Inh.
Test system: LZK
Construct: gene MAP3K13
RECORDED_CONDITIONS: concentration: 1 μM, replicates: in singlicate; n = 1
Field: numeric (%). Do not append units.

Reference set (3 entries):
{"SMILES_STRUCTURE": "Cc1ccc(NC(=O)Nc2ccc(Cl)c(C(F)(F)F)c2)cc1-c1ccc(C(=O)Nc2ccncc2)cc1", "VALUE_MEASURED": 0}
{"SMILES_STRUCTURE": "Fc1ccc(-c2nc[nH]c2-c2ccncc2)cc1", "VALUE_MEASURED": 0}
{"SMILES_STRUCTURE": "CSc1ccc(-c2nc3n(c2-c2ccncc2)CCC3)cc1", "VALUE_MEASURED": 45}

input: Field request: %Inh | item: `Fc1ccc(-c2nn3cccc(F)c3c2-c2ccncc2)cc1`
output: 0

input: Which %Inh is reported for this compound? `COc1ccc(Nc2nccc(NCCNC(=O)Nc3cc(C)ccc3C)n2)cc1`
output: 0

input: Entry `O=C1NC(=O)C(c2ccc(Cl)cc2)=C1Nc1cccc(Cl)c1` : reported %Inh = ?
output: 6
